Test system: MS2 coat protein
Experiment: apparent KD of MS2 coat protein; higher = weaker reporter binding
Settings: Eterna round: R107; input ligand: theophylline 20 uM
Listed here: items and their measured apparent KD of MS2 coat protein.
// units = nM; emit number, no label

Solved entries (count: 2):
CAUACUUUAUCCUAUGAGCCUAUUUGUGAUACCAGCAUCUAAAUUUGCCCUUGGCAGCACUUACAUGAGGAUCACCCAUGUUUUA [JR_NU_SSTheophyA_Sub028] has a reported apparent KD of MS2 coat protein of 33.6

ACCGAAAGCUCACAUGAGGAUCACCCAUGUCGAGGACCGGUACGGCCGCCACUCGGCAAAUAUAAGGGUGGACGCGUCUCUGCGU [Soramasoso] has a reported apparent KD of MS2 coat protein of 58.8

Consider the additional sequence presented here.
AGCCCUGUACUAGAUACCAGCUACAUGAGGAUCACCCAUGUGCGUCAAGACUGACUGUGUAGCCCUUGGCAGCUACUCGCAUGUA [Exclusion - Theophylline B (Freestyle 3)] has a reported apparent KD of MS2 coat protein of 23.1

* * *

Test system: MS2 coat protein
Experiment: apparent KD of MS2 coat protein, switch ON state; designed switch direction (-1 OFF switch, 1 ON switch): -1; higher = weaker reporter binding
Conditions: FMN input: 0 or 200 uM; Eterna round: R93 (includes R88 designs)
assay endpoint: apparent KD of MS2 coat protein (nM)
// units = nM; emit number, no label

Solved entries (count: 8):
AAGAAGUCAGGAUAUGCUGAUAGUAAAUUGAGUGAUGAGUAGCAGAAGGGACAUGAGGAUCACCCAUGUAAAGA [Opal 12] has a reported apparent KD of MS2 coat protein of 45.4

AAAAUACAUGAGGAUCACCCAUGUGAGGAUAUCUUAAAGGGAAUAAAAUAACUCAAAAAGAGAAGGCGCAAAAA [Ex 1 May 30] has a reported apparent KD of MS2 coat protein of 34.6

AACAGGUUAGGAUAUGUGUAACAAAUAAAAAAAAUAUAAACACAGAAGGAACAUGAGGAUCACCCAUGUUAACA [May 28] has a reported apparent KD of MS2 coat protein of 24.4

AAGAACAUAGGAUAUACAAGGAAGAAAGAAAAGAAAAGAAAACAUGAGGAUCACCCAUGUAGAAGGAUGUAGAA [EteRNA is fun!] has a reported apparent KD of MS2 coat protein of 24.4

AAGAAUGCAGGAUAUACAUGAGGAUCACCCAUGUAAAAGAAAGAAAAGGGAAAGAAAAGUAGAAGGGCAAAGAA [Satre-merenamun Tausret] has a reported apparent KD of MS2 coat protein of 29.6

AAAAAACAUGAGGAUCACCCAUGUGAGGAUAUCGGAAACAAAAAAAACAAAAACAAAACGAGAAGGCACAAAAA [Amethyst 32] has a reported apparent KD of MS2 coat protein of 72.4

AACAGUACAGGAUAUACAUGAGGAUCACCCAUGUAAAAAUAAUAAAAGGGCUCAAAAAGUAGAAGGGUACUGGA [Moding Maslow revisited (73) 15] has a reported apparent KD of MS2 coat protein of 31.2

AAAUAGGCAGGAUAUACAUGAAAAUUAAAAAAAAAAAAAAAACAUGAGGAUCACCCAUGUAGAAGGGUCAAAAA [Exclusion 2 - Omei 2] has a reported apparent KD of MS2 coat protein of 74.2

---
AUAAAGUCAGGAUAUGUAAAAAUAACGAAAGUUAUAAAUAAACAGAAGGGACAUGAGGAUCACCCAUGUAAAAU [Meechl MS2 Ex4] has a reported apparent KD of MS2 coat protein of 47

AUAAAACAUGAGGAUCACCCAUGUGAGGAUAUGCGAAACAAAGAAACAAACAAACAAAGCAGAAGGCACAAUAA [Amethyst 7] has a reported apparent KD of MS2 coat protein of 24.2

AAAAAGCUAGGAUAUACGAAAAAAAAGGGUAAAAAAUAAAAACAUGAGGAUCACCCAUGUAGAAGGAGCAAAAA [Mat - Exclusion 2 - Tesla mod - D36] has a reported apparent KD of MS2 coat protein of 43.2

GAAAAGUCAGGAUAUGCAGAUAAAAAAACGAAAAAAAAUCUGCAGAAGGGACAUGAGGAUCACCCAUGUAAAAG [Mat - Exclusion 4 - Mayanna - D110] has a reported apparent KD of MS2 coat protein of 66.3

CUCUUGUCAGGAUAUGGAAGAAAAGAAAAGAAAGAAAAGAACCAGAAGGGACAUGAGGAUCACCCAUGUAAGAA [EteRNA is fun!] has a reported apparent KD of MS2 coat protein of 156
